# test-system: mouse FAP (Mus musculus, UniProt P97321)
# Construct: biotinylated His, Avi tag, mouse FAP (26-761, FAP-M82Q5); His; Avi tag (biotinylated); purchased AcroBiosystems FAP-M82Q5
# Sequence (P97321 26-761): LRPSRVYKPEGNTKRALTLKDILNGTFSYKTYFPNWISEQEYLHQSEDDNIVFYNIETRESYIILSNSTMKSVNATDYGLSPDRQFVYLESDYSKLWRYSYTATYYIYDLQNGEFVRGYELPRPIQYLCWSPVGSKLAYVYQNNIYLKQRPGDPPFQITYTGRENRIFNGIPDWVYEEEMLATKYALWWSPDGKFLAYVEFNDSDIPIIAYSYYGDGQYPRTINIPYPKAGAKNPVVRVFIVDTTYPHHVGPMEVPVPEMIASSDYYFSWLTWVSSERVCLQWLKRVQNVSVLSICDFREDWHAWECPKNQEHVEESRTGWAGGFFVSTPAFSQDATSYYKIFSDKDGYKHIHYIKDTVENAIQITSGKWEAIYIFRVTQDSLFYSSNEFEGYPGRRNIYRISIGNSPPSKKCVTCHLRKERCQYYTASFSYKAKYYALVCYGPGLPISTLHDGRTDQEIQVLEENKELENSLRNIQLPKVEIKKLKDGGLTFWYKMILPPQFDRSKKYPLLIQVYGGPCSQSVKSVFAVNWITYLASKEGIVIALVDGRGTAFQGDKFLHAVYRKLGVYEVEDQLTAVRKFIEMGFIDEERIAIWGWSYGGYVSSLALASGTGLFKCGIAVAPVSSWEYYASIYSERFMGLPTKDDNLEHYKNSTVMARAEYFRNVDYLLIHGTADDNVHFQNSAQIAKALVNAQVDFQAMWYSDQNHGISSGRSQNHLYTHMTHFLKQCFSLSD
# measurement-notes: Surface plasmon resonance (SPR) for peptide affinity, mouse FAP
# Format: binding
pKd: −log10 of the molar value. Starred links: 1 amine or outer side, 2 acyl side, 3 side chain; linkers in the order of their positions; H or OH if unused. Non-standard residues stand in square brackets, D forms with d. *: point of attachment. F(4amPEG2NHDOTA-Lu) = lutetium complex of (S)-2,2',2''-(10-(1-(4-(2-amino-2-carboxyethyl)phenyl)-3,12-dioxo-5,8-dioxa-2,11-diazatridecan-13-yl)-1,4,7,10-tetraazacyclododecane-1,4,7-triyl)triacetic acid (Phe with 4-aminomethyl-PEG2-DOTA-Lu), O=C([O-])CN1CCN(CC(=O)[O-])CCN(CC(=O)NCCOCCOCC(=O)NCc2ccc(C[C@H](N[*:1])C(=O)[*:2])cc2)CCN(CC(=O)[O-])CC1.[Lu+3]; F4(amMeBAlaDOTALu) = lutetium complex of (S)-2,2',2''-(10-(2-((3-((4-(2-amino-2-carboxyethyl)benzyl)amino)-3-oxopropyl)(methyl)amino)-2-oxoethyl)-1,4,7,10-tetraazacyclododecane-1,4,7-triyl)triacetic acid (Phe with 4-aminomethyl-N-methyl-βAla, CN(CCC(=O)NCc1ccc(C[C@H](N[*:1])C(=O)[*:2])cc1)C(=O)CN1CCN(CC(=O)[O-])CCN(CC(=O)[O-])CCN(CC(=O)[O-])CC1.[Lu+3]; F(4OEtNHDOTA-Lu) = lutetium complex of (S)-2,2',2''-(10-(2-((2-(4-(2-amino-2-carboxyethyl)phenoxy)ethyl)amino)-2-oxoethyl)-1,4,7,10-tetraazacyclododecane-1,4,7-triyl)triacetic acid (Phe with 4-O-ethylamino-DOTA-Lu), O=C([O-])CN1CCN(CC(=O)[O-])CCN(CC(=O)NCCOc2ccc(C[C@H](N[*:1])C(=O)[*:2])cc2)CCN(CC(=O)[O-])CC1.[Lu+3]; K(COpipzaa) = N6-(4-(carboxymethyl)piperazine-1-carbonyl)-L-lysine, O=C(NCCCC[C@H](N[*:1])C(=O)[*:2])N1CCN(CC(=O)[*:3])CC1; COpipzaa = 4-(carboxymethyl)piperazine-1-carbonyl, O=C(O)CN1CCN(C(=O)*)CC1; NMeF = CN[C@@H](Cc1ccccc1)C(=O)O; Ahp(2) = CCCCC[C@H](N)C(=O)O
measured-attribute: pKd

{"substance": "Gly-Gly-NMePhe-F(4amPEG2NHDOTA-Lu)-Ahp-Trp-Gly-K(COpipzaa)-Asp-D-Pro (cyclo(GG[NMeF][F(4amPEG2NHDOTA-Lu)][Ahp(2)]WGK(COpipzaa)D[dP]); also: Lu complex) [Example C13]", "endpoint-value": 10.62}

a: Gly-Gly-NMePhe-F4(amMeBAlaDOTALu)-Ahp-Trp-Gly-Tyr-Asp-D-Pro (cyclo(GG[NMeF][F4(amMeBAlaDOTALu)][Ahp(2)]WGYD[dP]); also: Lu complex) [Example C11]
b: Gly-Gly-NMePhe-F(4OEtNHDOTA-Lu)-Ahp-Trp-Gly-K(COpipzaa)-Asp-D-Pro (cyclo(GG[NMeF][F(4OEtNHDOTA-Lu)][Ahp(2)]WG[K(COpipzaa)]D[dP]); also: Lu complex of DOTA) [Example C27]
input: Looking at a and b , which one comes out lower in pKd terms? // caller expects the label of the chosen entry
output: b

* * *

// values below are Kd; system is human FAP (Homo sapiens, UniProt Q12884)
Sequence (Q12884 26-760): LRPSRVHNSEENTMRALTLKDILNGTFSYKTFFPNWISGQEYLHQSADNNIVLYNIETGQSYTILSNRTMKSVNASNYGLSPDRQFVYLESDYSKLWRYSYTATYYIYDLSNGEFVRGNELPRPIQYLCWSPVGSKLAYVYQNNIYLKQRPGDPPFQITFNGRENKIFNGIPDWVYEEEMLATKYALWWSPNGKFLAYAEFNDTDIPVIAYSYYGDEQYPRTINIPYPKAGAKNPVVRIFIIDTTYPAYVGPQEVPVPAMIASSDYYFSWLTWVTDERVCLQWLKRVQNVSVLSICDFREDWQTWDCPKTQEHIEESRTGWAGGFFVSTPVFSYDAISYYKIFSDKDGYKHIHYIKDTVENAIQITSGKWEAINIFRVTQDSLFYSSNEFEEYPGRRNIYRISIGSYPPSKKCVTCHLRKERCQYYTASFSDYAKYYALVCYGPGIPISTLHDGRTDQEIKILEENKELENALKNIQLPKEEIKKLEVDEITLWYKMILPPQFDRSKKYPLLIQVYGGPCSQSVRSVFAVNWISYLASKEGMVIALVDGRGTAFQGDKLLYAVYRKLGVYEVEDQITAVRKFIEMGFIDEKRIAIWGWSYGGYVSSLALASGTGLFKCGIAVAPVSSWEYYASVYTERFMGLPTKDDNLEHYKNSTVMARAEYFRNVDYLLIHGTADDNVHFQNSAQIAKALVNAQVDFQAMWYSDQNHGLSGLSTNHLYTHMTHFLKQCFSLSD
Starred links: 1 amine or outer side, 2 acyl side, 3 side chain; linkers in the order of their positions; H or OH if unused. Non-standard residues stand in square brackets, D forms with d. Residues, ends and D or L forms follow the SMILES beside them. Groups on a side chain read outwards from the residue. *: point of attachment. DOTA = O=C(O)CN1CCN(CC(=O)O)CCN(CC(=O)*)CCN(CC(=O)O)CC1; Nicotinoyl(6-NMe3+) = C[N+](C)(C)c1ccc(C(=O)*)cn1; Phe(4-CH2NH2) = NCc1ccc(C[C@H](N)C(=O)O)cc1; Piperazinyl(4-CH2COOH) = O=C(O)CN1CCN(*)CC1; NMeF = CN[C@@H](Cc1ccccc1)C(=O)O; Aoc(2) = CCCCCC[C@H](N)C(=O)O; AEEA = NCCOCCOCC(=O)O; CO = O=C([*:1])[*:2]

{"compound": "CCCCCC[C@@H]1NC(=O)[C@H](Cc2ccc(CNC(=O)COCCOCCNC(=O)CN3CCN(CC(=O)O)CCN(CC(=O)O)CCN(CC(=O)O)CC3)cc2)NC(=O)[C@H](Cc2ccccc2)N(C)C(=O)CNC(=O)CNC(=O)[C@H]2CCCN2C(=O)[C@H](CC(=O)O)NC(=O)[C@H](CCCCNC(=O)N2CCN(CC(=O)O)CC2)NC(=O)CNC(=O)[C@H](Cc2c[nH]c3ccccc23)NC1=O [Example B1] (cyclo(GG[NMeF][Phe(4-CH2NH2)]([AEEA-DOTA])[Aoc(2)]WGK([CO-Piperazinyl(4-CH2COOH)])D[dP]))", "endpoint-value": "< 0.011 nM"}

Now consider the entry below.
input: For the compound CCCCCC[C@@H]1NC(=O)[C@H](Cc2ccc(CNC(=O)COCCOCCNC(=O)c3ccc([N+](C)(C)C)nc3)cc2)NC(=O)[C@H](Cc2ccccc2)N(C)C(=O)CNC(=O)CNC(=O)[C@H]2CCCN2C(=O)[C@H](CC(=O)O)NC(=O)[C@H](CCCCNC(=O)N2CCN(CC(=O)O)CC2)NC(=O)CNC(=O)[C@H](Cc2c[nH]c3ccccc23)NC1=O [Example C57] (cyclo([Aoc(2)]WGK([CO-Piperazinyl(4-CH2COOH)])D[dP]GG[NMeF][Phe(4-CH2NH2)]([AEEA-Nicotinoyl(6-NMe3+)]))) , what Kd is on record?
output: < 0.013 nM

* * *

# test-system: mouse FAP (Mus musculus, UniProt P97321)
# Construct: biotinylated His, Avi tag, mouse FAP (26-761, FAP-M82Q5); His; Avi tag (biotinylated); purchased AcroBiosystems FAP-M82Q5
# Sequence (P97321 26-761): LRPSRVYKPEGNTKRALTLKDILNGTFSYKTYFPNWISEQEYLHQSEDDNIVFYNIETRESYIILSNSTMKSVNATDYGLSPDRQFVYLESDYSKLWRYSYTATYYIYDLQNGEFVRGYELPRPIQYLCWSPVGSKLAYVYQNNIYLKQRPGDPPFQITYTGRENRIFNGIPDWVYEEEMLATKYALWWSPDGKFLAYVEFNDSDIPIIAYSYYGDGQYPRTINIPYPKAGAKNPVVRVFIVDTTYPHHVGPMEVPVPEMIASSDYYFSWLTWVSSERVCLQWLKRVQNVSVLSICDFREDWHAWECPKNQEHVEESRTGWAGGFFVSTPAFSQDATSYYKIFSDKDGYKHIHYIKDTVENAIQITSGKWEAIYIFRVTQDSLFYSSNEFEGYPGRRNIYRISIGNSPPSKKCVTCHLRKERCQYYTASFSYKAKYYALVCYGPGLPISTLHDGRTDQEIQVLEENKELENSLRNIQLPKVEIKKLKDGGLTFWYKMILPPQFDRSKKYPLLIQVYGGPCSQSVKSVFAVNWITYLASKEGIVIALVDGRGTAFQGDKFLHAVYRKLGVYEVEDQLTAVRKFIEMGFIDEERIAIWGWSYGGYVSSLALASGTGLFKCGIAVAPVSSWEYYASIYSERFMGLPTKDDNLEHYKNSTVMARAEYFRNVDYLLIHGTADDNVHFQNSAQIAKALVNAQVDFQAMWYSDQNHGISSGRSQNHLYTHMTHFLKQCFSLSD
# measurement-notes: Surface plasmon resonance (SPR) for peptide affinity, mouse FAP
# Format: binding
Starred links: 1 amine or outer side, 2 acyl side, 3 side chain; linkers in the order of their positions; H or OH if unused. Non-standard residues stand in square brackets, D forms with d. F4(amMeGlyDOTALu) = lutetium complex of (S)-2,2',2''-(10-(2-((2-((4-(2-amino-2-carboxyethyl)benzyl)amino)-2-oxoethyl)(methyl)amino)-2-oxoethyl)-1,4,7,10-tetraazacyclododecane-1,4,7-triyl)triacetic acid (Phe with 4-aminomethyl-N-methyl-Gly-D, CN(CC(=O)NCc1ccc(C[C@H](N[*:1])C(=O)[*:2])cc1)C(=O)CN1CCN(CC(=O)[O-])CCN(CC(=O)[O-])CCN(CC(=O)[O-])CC1.[Lu+3]; F4(amGlyDOTALu) = lutetium complex of (S)-2,2',2''-(10-(2-((2-((4-(2-amino-2-carboxyethyl)benzyl)amino)-2-oxoethyl)amino)-2-oxoethyl)-1,4,7,10-tetraazacyclododecane-1,4,7-triyl)triacetic acid (Phe with 4-aminomethyl-Gly-DOTA-Lu), O=C([O-])CN1CCN(CC(=O)[O-])CCN(CC(=O)NCC(=O)NCc2ccc(C[C@H](N[*:1])C(=O)[*:2])cc2)CCN(CC(=O)[O-])CC1.[Lu+3]; F(4OEtNHDOTA-Ga) = gallium complex of (S)-2,2',2''-(10-(2-((2-(4-(2-amino-2-carboxyethyl)phenoxy)ethyl)amino)-2-oxoethyl)-1,4,7,10-tetraazacyclododecane-1,4,7-triyl)triacetic acid (Phe with 4-O-ethylamino-DOTA-Ga), O=C([O-])CN1CCN(CC(=O)[O-])CCN(CC(=O)NCCOc2ccc(C[C@H](N[*:1])C(=O)[*:2])cc2)CCN(CC(=O)[O-])CC1.[Ga+3]; NMeF = CN[C@@H](Cc1ccccc1)C(=O)O; Ahp(2) = CCCCC[C@H](N)C(=O)O
measured-attribute: Kd (nM)

{"substance": "Gly-Gly-NMePhe-F4(amGlyDOTALu)-Ahp-Trp-Gly-Tyr-Asp-D-Pro (cyclo(GG[NMeF][F4(amGlyDOTALu)][Ahp(2)]WGYD[dP]); also: Lu complex) [Example C9]", "measured-attribute": "Kd", "endpoint-value": 0.032}

A: Gly-Gly-NMePhe-F4(amMeGlyDOTALu)-Ahp-Trp-Gly-Tyr-Asp-D-Pro (cyclo(GG[NMeF][F4(amMeGlyDOTALu)][Ahp(2)]WGYD[dP]); also: Lu complex) [Example C8]
B: Gly-Gly-NMePhe-F(4OEtNHDOTA-Ga)-Ahp-Trp-Gly-Tyr-Asp-D-Pro (cyclo(GG[NMeF][F(4OEtNHDOTA-Ga)][Ahp(2)]WGYD[dP]); also: Ga complex of DOTA) [Example C51]
input: Select the item with the higher value of Kd from the options A and B listed. // caller expects the label of the chosen entry
output: B
(B: 0.026 nM, A: 0.006 nM)
